- experiment: Pharmacokinetics of Compound 4 in mice (IV and PO)
- Assay type: in vivo, BALB/c nude female mice
- experimentalSetup: female, BALB/c nude, mouse, plasma; 20 mg/kg PO
endpointName: Cmax (ng/mL)
Express your answer in ng/mL, writing the number without its unit.

For the compound shown here, `NCCCOc1cc2ccccc2cc1C(=O)NCCCOc1cc2ccccc2cc1C(=O)Nc1ccc(Cl)cc1O` , give the reported Cmax.
335

###

- experiment: Pharmacokinetics of Compound 4 in mice (IV and PO)
- Type: in vivo, BALB/c nude female mice
- experimentalSetup: female, BALB/c nude, mouse, plasma, oral, 20 mg/kg, 20 mg/kg PO, 2 hr, G4; read-out: Plasma concentration G4
endpointName: concentration at 2 hr
Answer format reminder: number followed by unit.

Find the recorded concentration at 2 hr belonging to NCCCOc1cc2ccccc2cc1C(=O)NCCCOc1cc2ccccc2cc1C(=O)Nc1ccc(Cl)cc1O [Compound 4] and report it.
353 ng/mL

Recorded values, source patent US9073820B2.
